Test system: Jurkat
protocol details: MTT leukemia cell proliferation inhibition, Jurkat
Assay type: cell-based
recorded conditions: Homo sapiens, 72 h, MTT
# IC50 per entry

smiles code | IC50
CC1(C)CC[C@]2(NC(=O)c3ccccc3)CC[C@]3(C)C(=CC[C@@H]4[C@@]5(C)CC[C@H](O)C(C)(C)[C@@H]5CC[C@]43C)[C@@H]2C1 | > 16 µg/mL
CC1(C)CC[C@]2(C(=O)O)CC[C@]3(C)C(=CC[C@@H]4[C@@]5(C)CC[C@H](O)C(C)(C)[C@@H]5CC[C@]43C)[C@@H]2C1 | > 16 µg/mL

Supply reported IC50 belonging to this compound: COc1cccc(C(=O)N[C@]23CCC(C)(C)C[C@H]2C2=CC[C@@H]4[C@@]5(C)CC[C@H](O)C(C)(C)[C@@H]5CC[C@@]4(C)[C@]2(C)CC3)c1 > 16 µg/mL

* * *

System: MGC803
protocol details: MTT solid tumor cell proliferation inhibition, MGC803
Assay type: cell-based, human
recorded conditions: Homo sapiens, MGC-803; MGC803, 72 h, MTT
measurement kind: IC50

Example cases with answers are listed next.
smiles code | IC50
COc1cccc(C(=O)N[C@]23CCC(C)(C)C[C@H]2C2=CC[C@@H]4[C@@]5(C)CC[C@H](O)C(C)(C)[C@@H]5CC[C@@]4(C)[C@]2(C)CC3)c1 | > 16 µg/mL
CC1(C)CC[C@]2(C(=O)O)CC[C@]3(C)C(=CC[C@@H]4[C@@]5(C)CC[C@H](O)C(C)(C)[C@@H]5CC[C@]43C)[C@@H]2C1 | > 16 µg/mL

// next item, IC50 requested
Given CC1(C)CC[C@]2(NC(=O)c3ccccc3)CC[C@]3(C)C(=CC[C@@H]4[C@@]5(C)CC[C@H](O)C(C)(C)[C@@H]5CC[C@]43C)[C@@H]2C1 , report its IC50 on MGC803. > 16 µg/mL

* * *

# inhibition at 16 µg/mL per entry
Tested on: SK-OV-3
protocol details: MTT solid tumor cell proliferation inhibition, SK-OV-3
Assay type: cell-based, human
recorded conditions: Homo sapiens; SK-OV-3, 16 μg/mL compound, 72 h; read-out: IR (inhibition rate)
Experimental: […] Obtaining 4000 well-growing human solid tumor cells and inoculating them into wells of a 96-well cell culture plate. […] Then the relative number of the living cells is determined by the MTT method. […]
Provide the reading as a plain figure in %.

smiles code | unit of measure | inhibition at 16 µg/mL
CC1(C)CC[C@]2(C(=O)O)CC[C@]3(C)C(=CC[C@@H]4[C@@]5(C)CC[C@H](O)C(C)(C)[C@@H]5CC[C@]43C)[C@@H]2C1 | % | 8.3
CC1(C)CC[C@]2(NC(=O)C3CC3)CC[C@]3(C)C(=CC[C@@H]4[C@@]5(C)CC[C@H](O)C(C)(C)[C@@H]5CC[C@]43C)[C@@H]2C1 | % | 68.9
CC1(C)CC[C@]2(NC(=O)c3cccs3)CC[C@]3(C)C(=CC[C@@H]4[C@@]5(C)CC[C@H](O)C(C)(C)[C@@H]5CC[C@]43C)[C@@H]2C1 | % | 53.5

Supply reported inhibition at 16 µg/mL belonging to this molecule: COc1cccc(C(=O)N[C@]23CCC(C)(C)C[C@H]2C2=CC[C@@H]4[C@@]5(C)CC[C@H](O)C(C)(C)[C@@H]5CC[C@@]4(C)[C@]2(C)CC3)c1 17.2
